# testSummary: Neuroprotective activity against H2O2-induced oxidative stress in human SH-SY5Y cells assessed as cell viability at 3 uM preincubated for 24 hrs followed by H2O2 addition for 1 hr measured after 17 hrs by MTT assay relative to control
# Type: functional
# recordedConditions: read-out: Activity
measure: viability at 3 µM (%)
Form entry: value (%) — number only.

Entry under test: O=c1cc(-c2ccc(Cl)cc2)oc2c(O)c(O)ccc12 . Its viability at 3 µM was 93.4

Recorded result, O=c1cc(-c2ccc(F)cc2)oc2c(O)c(O)ccc12 , viability at 3 µM: 88.8

Entry Oc1ccc2c(=S)cc(-c3ccccc3)oc2c1O — recorded viability at 3 µM = 72.4

O=c1cc(-c2ccc(Br)cc2)oc2c(O)c(O)ccc12 yielded viability at 3 µM of 84

Note to self: viability at 3 µM recorded for N#Cc1ccc(-c2cc(=O)c3ccc(O)c(O)c3o2)cc1 was 84.6

// recorded viability at 3 µM for Oc1ccc2c(=S)cc(-c3ccc(F)cc3)oc2c1O : 97.4

Data point: Oc1ccc2c(=S)cc(-c3ccc(Br)cc3)oc2c1O ; viability at 3 µM = 97.8

Field viability at 3 µM (entry Oc1ccc2c(=S)cc(-c3ccc(Cl)cc3)oc2c1O ) reads 107

Consider N#Cc1ccc(-c2cc(=S)c3ccc(O)c(O)c3o2)cc1 . Its measured viability at 3 µM is 106

// recorded viability at 3 µM for O=c1cc(-c2ccc(O)c(O)c2)oc2cc(O)cc(O)c12 [LUTEOLIN] : 98.3

* * *

# testSummary: Antioxidant activity assessed as DPPH free radical scavenging activity after 30 mins incubation in dark by UV-Vis spectrophotometric analysis
# Type: functional
measure: pIC50
Note on pIC50: it is the negative log10 of concentration, concentration in mol/L.

Given item O=c1cc(-c2ccccc2)oc2c(O)c(O)ccc12 [7,8-DIHYDROXYFLAVONE] , the value recorded as its pIC50 is 4.81

* * *

# testSummary: Neuroprotective activity against H2O2-induced oxidative stress in human SH-SY5Y cells assessed as cell viability at 3 uM preincubated for 24 hrs followed by H2O2 addition for 1 hr measured after 17 hrs by MTT assay relative to control
# Type: functional
# recordedConditions: read-out: Activity
Can you tell me viability at 3 µM for the items I'm about to list?

Field viability at 3 µM (entry Oc1ccc2c(=S)cc(-c3cccs3)oc2c1O ) reads < 60%

Form field viability at 3 µM, entry Oc1cc(O)c2c(=S)cc(-c3ccccc3)oc2c1 : < 50%

Note to self: viability at 3 µM recorded for Oc1ccc2c(=S)cc(-c3cccnc3)oc2c1O was < 60%

Reported viability at 3 µM ( Oc1ccc2c(=S)cc(-c3ccco3)oc2c1O ) = < 60%

viability at 3 µM reading for O=c1cc(-c2ccccc2)oc2cc(O)cc(O)c12 : < 50%

Please fill in: viability at 3 µM reported for Oc1cc(O)c2c(=S)cc(-c3ccc(O)c(O)c3)oc2c1 = 67.4 to 73%

The compound listed as O=c1cc(-c2ccco2)oc2c(O)c(O)ccc12 has a reported viability at 3 µM of < 60%

# compound O=c1cc(-c2cccs2)oc2c(O)c(O)ccc12 ; its viability at 3 µM = < 60%

Item: O=c1cc(-c2cccnc2)oc2c(O)c(O)ccc12 | viability at 3 µM: < 60%

Looking up O=c1cc(-c2ccccc2)oc2c(O)c(O)ccc12 [7,8-DIHYDROXYFLAVONE] , I found its viability at 3 µM recorded as 96.2 to 97%
